Recorded % Positive for the following binders
# test.system: T1, human GPRC5D (human, UniProt Q9NZD1 1-345)
# T1 construct: whole, on cells; also called hGPRC5D; G-protein coupled receptor family C group 5 member D
# T1 sequence (Q9NZD1 whole entry): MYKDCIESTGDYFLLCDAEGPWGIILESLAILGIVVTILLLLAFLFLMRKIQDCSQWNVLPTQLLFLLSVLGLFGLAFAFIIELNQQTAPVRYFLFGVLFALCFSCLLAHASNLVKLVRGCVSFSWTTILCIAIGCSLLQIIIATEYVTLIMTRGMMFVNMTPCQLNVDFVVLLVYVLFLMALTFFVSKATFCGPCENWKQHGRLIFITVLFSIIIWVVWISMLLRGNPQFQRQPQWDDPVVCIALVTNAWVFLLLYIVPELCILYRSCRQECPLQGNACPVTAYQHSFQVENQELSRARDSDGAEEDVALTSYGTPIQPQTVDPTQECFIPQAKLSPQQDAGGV
# protocol.text: FACS, OPM-2 cells
For clarity, give the value followed by its unit.

binder	reported
101B3G3 (antibody, V domains shown, Mouse monoclonal antibody from hybridoma subclone) VH: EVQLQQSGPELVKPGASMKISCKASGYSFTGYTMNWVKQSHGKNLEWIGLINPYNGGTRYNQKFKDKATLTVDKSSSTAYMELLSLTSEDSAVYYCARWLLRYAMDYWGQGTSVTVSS VL: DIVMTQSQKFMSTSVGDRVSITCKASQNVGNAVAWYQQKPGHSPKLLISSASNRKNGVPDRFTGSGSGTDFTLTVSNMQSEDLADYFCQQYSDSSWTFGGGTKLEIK	99.6%

Field: next binder
stdin: So what's the measured % Positive for this one? 28H9C12 (antibody, V domains shown, Mouse monoclonal antibody from hybridoma subclone; also called 281H9C12) VH: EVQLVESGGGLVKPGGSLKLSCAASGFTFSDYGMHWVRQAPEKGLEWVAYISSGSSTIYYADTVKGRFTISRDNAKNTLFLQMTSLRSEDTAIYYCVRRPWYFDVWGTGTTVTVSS VL: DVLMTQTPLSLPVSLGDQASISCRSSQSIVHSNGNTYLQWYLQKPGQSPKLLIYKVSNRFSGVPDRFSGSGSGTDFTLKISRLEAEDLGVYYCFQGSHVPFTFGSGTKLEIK
stdout: 97.9%
